Tested on: Du145
EXPERIMENT: whole cell deacetylase assay with Boc-Lys(Ac)-AMC in Du145 cells
PARTICULARS: read-out: whole cell deacetylase IC50, Du145; Du145 cells; pre-incubated with inhibitor 16 hours; Boc-Lys(Ac)-AMC substrate; mean of at least 2 experiments
VALUE KIND: pIC50
Just so you know, pIC50 here is -log10 of the concentration in molar units; reply with that number alone.

Hello, please tell me recorded pIC50 for this one: Nc1ccccc1NC(=O)c1ccc(CNC(=O)OCc2cccnc2)cc1
6.52

====

Test system: Panc-1
EXPERIMENT: whole cell deacetylase assay with Boc-Lys(Ac)-AMC in Panc-1 cells
PARTICULARS: read-out: whole cell deacetylase IC50, Panc-1, pre-incubated with inhibitor 16 hours, Boc-Lys(Ac)-AMC substrate, mean of at least 2 experiments
VALUE KIND: pIC50
Just so you know, pIC50 here is -log10 of the concentration in molar units; reply with that number alone.

Hello, please tell me recorded pIC50 for this one: Nc1ccccc1NC(=O)c1ccc(CNC(=O)OCc2cccnc2)cc1
6.30
